This listing pairs compounds with measured Mean day of death.
- Tested on: Mus musculus
- procedure-text: Mortality rate was measured at a dose of 250 mg/kg
- Type: functional
Number in days, nothing else.

Check out these entries, answers already filled in.
NC[C@H]1OC(n2cc(F)c(=O)[nH]c2=O)[C@H](O)[C@@H]1O (stereo partly specified) :: 13.6
C[C@H]1O[C@@H](n2cc(F)c(=O)[nH]c2=O)[C@H](O)[C@@H]1O :: 12.8
O=c1[nH]c(=O)n(C2O[C@H](CBr)[C@@H](O)[C@H]2O)cc1F (stereo partly specified) :: 14.2
CS(=O)(=O)OC[C@H]1OC(n2cc(F)c(=O)[nH]c2=O)[C@H](O)[C@@H]1O (stereo partly specified) :: 16.8
O=c1[nH]c(=O)n(C2O[C@H](CCl)[C@@H](O)[C@H]2O)cc1F (stereo partly specified) :: 17.4

Lab note: need Mean day of death with Mus musculus for entry O=c1[nH]c(=O)n(C2O[C@H](CF)[C@@H](O)[C@H]2O)cc1F (stereo partly specified) , please look it up.
16.8

Entry source: ChEMBL document CHEMBL1122121
